assay: Plasma, lung and lesion drug levels (LC-MS/MS and LCM-LC-MS/MS); conditions: C3HeB/FeJ, mouse, in vivo, 5 mg/kg
Value Kind: concentration at 1 h
Just the number plus its unit, please.

Q: What value of measured concentration at 1 h is listed for "O=C1CCc2c(OC[C@]3(O)CCN(c4c(F)cc(Cl)cc4F)C[C@H]3O)ccc(F)c2N1" ?
Result: 190 ng/g

* * *

assay: Plasma, lung and lesion drug levels (LC-MS/MS and LCM-LC-MS/MS); settings: C3HeB/FeJ, mouse, in vivo, 5 mg/kg
Value Kind: Cmax at 1 h

Q: What value of measured Cmax at 1 h is listed for O=C1CCc2c(OC[C@]3(O)CCN(c4c(F)cc(Cl)cc4F)C[C@H]3O)ccc(F)c2N1 [OPC-167832] ?
Result: 35 ng/g
